# method_description: NCI Yeast Anticancer Drug Screen. Data for the cln2 rad14 strain (AID 165);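 also: 0% = growth equal to vehicle treated cultures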
# condition: S. cerevisiae cln2 rad14 strain, at 50.0 µM (retest, dose inferred, filed as 5.0)
About 79,000 compounds went through this panel and 15% of them were active in at least one assay; those are over-represented in the sample as a whole. The source made the active and inactive calls. Rule as the data show it: active = growth inhibition above about 70%; inactive = the rest.
API: response.call in active, inactive

Solved entries (count: 3):
Cc1nc2c(Br)cc(Br)cc2c(=O)n1-c1ccccc1NC1OC(CO)C(O)C(O)C1O (stereo not drawn): active
COc1ccc(C2c3cc4c(cc3OC(NNC(N)=O)C2C)OCO4)cc1 (stereo not drawn): active
N#CCCC(CCC#N)(CCC#N)C(=O)c1ccccc1: inactive

Identify the outcome logged in this assay for the compound shown: Fc1ccc(/C=C2\COCC3=C2NC(=S)NC3c2ccc(F)cc2)cc1 (stereo not drawn)
active

Identify the outcome logged in this assay for the compound shown: COC1/C=C\C=C(/C)C(=O)Nc2cc3nc4ccc(Br)cc4oc-3c(c2=O)CC(C)CC(OC)C(O)C(C)/C=C(\C)C1OC(N)=O (stereo not drawn)
active

Identify the outcome logged in this assay for the compound shown: O=Cc1cc([N+](=O)[O-])cc(CCl)c1O
inactive

Identify the outcome logged in this assay for the compound shown: O=C1c2cc3c(cc2CC12Cc1ccccc1C2)CCC3
inactive

Identify the outcome logged in this assay for the compound shown: CC1=NC(=Cc2ccc([N+](=O)[O-])cc2)C(=O)N1n1c(-c2ccccc2)nc2ccccc2c1=O
inactive

Identify the outcome logged in this assay for the compound shown: c1ccc(-c2nc3ccccc3[nH]2)cc1
inactive

Identify the outcome logged in this assay for the compound shown: CC(=O)OC1CC2C(C)(C)C(=O)C=C[C@]2(C)C2CCC3(C)C(=CC(=O)C3c3ccoc3)[C@]12C (stereo partly drawn)
inactive

Identify the outcome logged in this assay for the compound shown: CCCC1CCC(=C2C(=O)CCC2=O)O1 (stereo not drawn)
inactive

Identify the outcome logged in this assay for the compound shown: COC(=O)[C@@H](NS(=O)(=O)CC12CCC(CC1)C2(C)C)C(C)(C)C
inactive

Identify the outcome logged in this assay for the compound shown: CCCCCCC(C(=O)OCC)N1C(=O)c2ccccc2S1(=O)=O (stereo not drawn)
inactive

* * *

# method_description: NCI Yeast Anticancer Drug Screen. Data for the sgs1 mgt1 strain (AID 161);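 also: 0% = growth of cultures given vehicle only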
# condition: S. cerevisiae sgs1 mgt1 strain, at 50.0 µM (retest, dose inferred, filed as 5.0), active compounds read high
About 79,000 compounds went through this panel and 15% of them were active in at least one assay; those are over-represented in the sample as a whole.
attribute_measured: growth inhibition (%)
Give bare numbers, in %.

See these solved cases before continuing.
O=c1cc[nH]cc1: 2
Cn1c(N)nc(=O)c2[nH]cnc21: -4
Cc1cc2c(C(C)C)c(O)c(O)c(C=Nc3ccccc3S)c2c(O)c1-c1c(C)cc2c(C(C)C)c(O)c(O)c(C=Nc3ccccc3S)c2c1O: 4
Nc1cc2c(cc1[N+](=O)[O-])[nH]c1c(-c3ccccc3)nccc12: 99
CC(=O)OC1CCC2(C)C(CCC3C4CCC(OC(C)=O)C4(C)CCC32)O1 (stereo not given): 70
Cc1c(Cl)cccc1NC(=O)CC1Sc2ccccc2NC1=O (stereo not given): 38

I need growth inhibition for every entry listed below, if you could help.
1. O=c1c(Cl)c(Cl)cnn1-c1ccccc1
2. O=C1OC(c2ccc(O)cc2)(c2ccc(O)cc2)c2cccc3cccc1c23

14
99

* * *

# method_description: NCI Yeast Anticancer Drug Screen. Data for the mec2-1 strain (AID 157)
# condition: S. cerevisiae mec2-1 strain, at 5.0 µM (retest, dose inferred, filed as 0.5), active compounds read high
The panel holds about 79,000 compounds, 15% with a hit somewhere; the sample as a whole holds those more often.
For each record, write down the corresponding growth inhibition.
One number for each entry, in %.

I need growth inhibition for every entry listed below, if you could help.
1. COc1ccc(Oc2ccccc2N)cc1
2. CCCN(CCC)C(=S)N/N=C/c1ccccn1
3. Nc1ncnc2c(C3OC(CO)C(O)C3O)scc12 (stereo unspecified)
4. CC(=O)NC1CCC(C2CCCCC2)CC1C1CCCCC1 (stereo unspecified)
5. CC[N+](C)(C)c1ccccc1
6. O=C(CNCc1ccccc1)Oc1c(Cl)c(Cl)c(Cl)c(Cl)c1Cl

1: -1; 2: 99; 3: 12; 4: -1; 5: 48; 6: 22

* * *

For each record, write down the corresponding growth inhibition.
# method_description: NCI Yeast Anticancer Drug Screen. Data for the mec2-1 strain (AID 157)
# condition: S. cerevisiae mec2-1 strain, at 50.0 µM (retest, dose inferred, filed as 5.0), active compounds read high
The panel holds about 79,000 compounds, 15% with a hit somewhere; the sample as a whole holds those more often.
Give bare numbers, in %.

I need growth inhibition for every entry listed below, if you could help.
1. Cc1ccnc2c1c(=O)c1ccccc1n2C
2. COc1ccc2[nH]c3c(C)c4ccncc4c(C)c3c2c1
3. CO[C@H](C(=O)[C@@H](O)[C@@H](C)O)[C@@H]1Cc2cc3cc(OC4CC(OC5CC(O)C(O)C(C)O5)C(O)C(C)O4)c(C)c(O)c3c(O)c2C(=O)[C@H]1OC1CC(OC2CC(OC3CC(C)(O)C(O)C(C)O3)C(O)C(C)O2)C(O)C(C)O1 (stereo partly drawn)

[28, 99, 39]

* * *

# method_description: NCI Yeast Anticancer Drug Screen. Data for the mlh1 rad18 strain (AID 175)
# condition: S. cerevisiae mlh1 rad18 strain growth inhibition; at 50.0 µM (retest, dose inferred, filed as 5.0); active compounds read high
# Description: Growth inhibition of yeast strains with defined genetic alterations is measured as a screen for potential anti-cancer activity. Selected strains with alterations in DNA damage repair or cell cycle control were exposed to compounds and growth inhibition was measured relative to vehicle treated controls. The strain used in this assay is mlh1 rad18
About 79,000 compounds went through this panel and 15% of them were active in at least one assay; those are over-represented in the sample as a whole.
For each record, write down the corresponding growth inhibition.
Answers are plain numbers, in %.

See these solved cases before continuing.
O=C(O)c1ccc(Nc2cnc3ccc(C(F)(F)F)cc3n2)cc1: 16
CC(=O)Nc1cc(C)ccc1C: -4
O/N=C/c1cc(I)c(O)c(I)c1: 98
Cc1c(-c2ccccc2)ccnc1/C=N/NC(N)=S: 36

I need growth inhibition for every entry listed below, if you could help.
1. Cc1nc2c(ccc3[nH]c4ccccc4c32)s1
2. CC(C)CCC[C@@H](C)[C@H]1CC[C@H]2[C@@H]3CC=C4N5CCCN=C5CC[C@]4(C)[C@H]3CC[C@]12C
3. COc1ccc(Cc2ccc(O)cc2)cc1
4. O=C1NC(=O)c2cc([N+](=O)[O-])ccc21
5. NC(=O)N/N=C/c1ccc([N+](=O)[O-])o1
6. CS(=O)(=O)OCCN(CCOS(C)(=O)=O)c1ccc(C=Nc2ccc(-c3csc(Cc4ccccc4)n3)cc2)c(Cl)c1

1: 99; 2: 98; 3: 54; 4: 12; 5: 50; 6: 94

I need growth inhibition for every entry listed below, if you could help.
1. CC(=O)OCC(=O)[C@H]1CC[C@H]2[C@@H]3CC=C4C[C@@H](O)CC[C@]4(C)[C@H]3CC[C@]12C
2. COc1cc2c(c3c1/c(=N/N(C)C)c1ccccc1n3C)C=CC(C)(C)O2
3. CCN(CC)c1ccc(C(=C2C=CC(=[N+](CC)CC)C=C2)c2ccc(N(CC)CC)cc2)cc1
4. CC(CCc1nc2ccccc2s1)(c1ccc(O)cc1)c1ccc(O)cc1

95
93
90
100

* * *

# method_description: NCI Yeast Anticancer Drug Screen. Data for the bub3 strain (AID 167)
# condition: S. cerevisiae bub3 mutant strain, at 50.0 µM, active compounds read high
The panel holds about 79,000 compounds, 15% with a hit somewhere; the sample as a whole holds those more often.
attribute_measured: growth inhibition (%)
Give bare numbers, in %.

CC(NNC(=S)N1CCN(c2ccccn2)CC1)c1nccc2ccccc12 (stereo not given): 6.2

I need growth inhibition for every entry listed below, if you could help.
1. ClCCCN(CCCCl)c1ccc(C=Nc2cccc(Cl)c2)cc1
2. Cc1noc(-c2ccc([N+](=O)[O-])o2)n1
3. CC(C)CC(Nc1c(O)ccc2ccccc12)C(=O)O (stereo not given)
4. O=C1CSC(=S)N1c1ccc(Cl)c(C(F)(F)F)c1
5. CC(=O)c1ccc(N)cc1
6. COC(=O)CSC(=S)N1CCOCC1
7. CC(O)CN1CCN(CC(C)O)CC1.[I][Pt+2][I] (stereo not given)
8. c1ccc(C(c2ccccc2)n2ccnc2)cc1

1. -13
2. 63.9
3. 95.2
4. 98.5
5. -2.8
6. -10.1
7. -2
8. 59.4

I need growth inhibition for every entry listed below, if you could help.
1. c1ccc(C2=NC(c3ccccc3)=NS(S3=NC(c4ccccc4)=NC(c4ccccc4)=N3)=N2)cc1 (stereo not given)
2. O=C1C=CC(=O)c2c1ccc1c3ccccc3n(Cc3ccccc3)c21
3. CCCCCCC(CCCCCCCCCCC(=O)OCC(CC)CC)OC(=O)CC (stereo not given)
4. O=C(N/C=C/C=C/Sc1ccccc1)OCc1ccccc1

[38, 76, -6.9, 2.2]

I need growth inhibition for every entry listed below, if you could help.
1. COc1ccc2c(c1)C(Cc1ccc(Oc3ccc(CC4c5cc(OC)ccc5CC[N+]4(C)C)cc3)cc1)[N+](C)(C)CC2 (stereo not given)
2. O=C(O)c1ccc(Nc2cnc3ccc(C(F)(F)F)cc3n2)cc1

1: 84.7; 2: 4.9
